conditions: human
PROPERTY LABEL: Hepatotoxicity (severe hepatitis)
In your answer, state the number alone without any accompanying words.

O=C1OCCN1/N=C/c1ccc([N+](=O)[O-])o1 :: 0
CC1=C(C(=O)O)N2C(=O)[C@@H](NC(=O)[C@H](N)c3ccccc3)[C@H]2SC1 [CEPHALEXIN ANHYDROUS] :: 2
CC[C@@H](CO)NCCN[C@@H](CC)CO :: 0

Then there is this molecule:
Read off the recorded Hepatotoxicity (severe hepatitis) for O=C1c2cccc(O)c2C(=O)c2c(O)cccc21
0

----------
conditions: human, serum
Entries and their Hepatotoxicity (acute) values follow.
In your answer, state the number alone without any accompanying words.

CC(=O)OCC1=C(C(=O)O)N2C(=O)[C@@H](NC(=O)Cc3cccs3)[C@H]2SC1 :: 4
CC#CCC(C)[C@H](O)/C=C/[C@@H]1[C@H]2c3cccc(CCCC(=O)O)c3O[C@H]2C[C@H]1O (stereo partly drawn) :: 0
O=C(O)COCCN1CCN(C(c2ccccc2)c2ccc(Cl)cc2)CC1 (stereo not drawn) :: 5
CCC(C)n1ncn(-c2ccc(N3CCN(c4ccc(OC[C@H]5CO[C@](Cn6cncn6)(c6ccc(F)cc6F)O5)cc4)CC3)cc2)c1=O (stereo partly drawn) :: 0
CCC1(CC)C(=O)NCC(C)C1=O (stereo not drawn) :: 1

Read off the recorded Hepatotoxicity (acute) for CCN1CCC[C@H]1CNC(=O)c1c(OC)ccc(Br)c1OC [REMOXIPRIDE]
0

Read off the recorded Hepatotoxicity (acute) for NC(=O)OC[C@@H]1[C@H](NC(=O)/C(=N\OCC(=O)O)c2csc(N)n2)C(=O)N1S(=O)(=O)O
0

Read off the recorded Hepatotoxicity (acute) for CCOc1cc(CC(=O)N[C@@H](CC(C)C)c2ccccc2N2CCCCC2)ccc1C(=O)O [REPAGLINIDE]
0

The measured values listed here are drawn from ChEMBL document CHEMBL3137667.
